In this section we review reported pIC50 values for a set of compounds.
system: LPS-induced TNF-α release in peripheral blood mononuclear cells (PBMCs); test: In vitro determination of PDE4 inhibitory activity in the PBMCs assay (LPS-induced TNF-α release); assay type: cell-based, human; settings: PBMC; human PBMCs, LPS 3 ng/ml, 18 hours, TNF-α by ELISA; read-out: PDE4 inhibition (IC50, 50% inhibition of LPS-induced TNF-α release)
pIC50: −log10 of the molar value. Counter-ions that a name gives are not always drawn.

compound	pIC50
O=C(O[C@@H](Cc1c(Cl)c[n+]([O-])cc1Cl)c1ccc(OC(F)F)c(OCC2CC2)c1)[C@@H]1SCCN1S(=O)(=O)c1cccnc1	> 10.00
O=C(O[C@@H](Cc1c(Cl)c[n+]([O-])cc1Cl)c1ccc(OC(F)F)c(OCC2CC2)c1)[C@@H]1SCCN1C(=O)c1cccc(-c2cnco2)c1	9.00 to 10.00
CN(C)S(=O)(=O)c1cccc(S(=O)(=O)N2CCCC[C@H]2C(=O)O[C@@H](Cc2c(Cl)c[n+]([O-])cc2Cl)c2ccc(OC(F)F)c(OCC3CC3)c2)c1	> 10.00
O=C(O[C@@H](Cc1c(Cl)c[n+]([O-])cc1Cl)c1ccc(OC(F)F)c(OCC2CC2)c1)[C@@H]1SCCN1C(=O)c1ccc(N2CCS(=O)(=O)CC2)cc1	9.00 to 10.00
O=C(O[C@@H](Cc1c(Cl)c[n+]([O-])cc1Cl)c1ccc(OC(F)F)c(OCC2CC2)c1)C1SCCN1S(=O)(=O)c1ccc(F)cc1Cl (some centres unmarked)	9.00 to 10.00
CN(C)C(=O)c1cccc(C(=O)N2CCS[C@H]2C(=O)O[C@@H](Cc2c(Cl)c[n+]([O-])cc2Cl)c2ccc(OC(F)F)c(OCC3CC3)c2)c1	9.00 to 10.00
CN(C)Cc1ccc(C(=O)N2CCSC2C(=O)O[C@@H](Cc2c(Cl)c[n+]([O-])cc2Cl)c2ccc(OC(F)F)c(OCC3CC3)c2)s1 (some centres unmarked) [Compound 51, formate]	9.00 to 10.00
Cc1nn(C)c2ncc(S(=O)(=O)N3CCSC3C(=O)O[C@@H](Cc3c(Cl)c[n+]([O-])cc3Cl)c3ccc(OC(F)F)c(OCC4CC4)c3)cc12 (stereo in doubt)	> 10.00
O=C(O[C@@H](Cc1c(Cl)c[n+]([O-])cc1Cl)c1ccc(OC(F)F)c(OCC2CC2)c1)C1SCCN1S(=O)(=O)c1ccsc1 (some centres unmarked)	> 10.00
O=C(O[C@@H](Cc1c(Cl)c[n+]([O-])cc1Cl)c1ccc(OC(F)F)c(OCC2CC2)c1)[C@@H]1SCCN1S(=O)(=O)c1c[nH]c(C(=O)N2CCCC2)c1	> 10.00
COC(=O)c1ccc(S(=O)(=O)N2CCSC2C(=O)O[C@@H](Cc2c(Cl)c[n+]([O-])cc2Cl)c2ccc(OC(F)F)c(OCC3CC3)c2)s1 (some centres unmarked)	9.00 to 10.00
